Assign binding signal to each entry below.
- experimental target: GST-SBP-SLBP (stem-loop binding protein) (Homo sapiens, UniProt Q14493 1-270)
- run description: targeted RNA Bind-n-Seq; RBNS binding buffer: 25 mM Tris pH 7.5, 150 mM KCl, 3 mM MgCl2, 0.1% Tween, 0.5 mg/mL BSA, 1 mM DTT; 27 nM protein, 750 pM RNA pool; temperature not stated; high values mean tight binding
- details: protein: recombinant; tags: N-terminal GST and SBP (pGEX6P1-SBP); structured_RNA
Whole data set: some 11,000 sequences, median “log2 fold change” near 0.00022, cut for the highest 2% near 0.34. The list shows a part of the results.
Numbers only, in log2 fold change.

{"seq string": "GGUCACGUCUCAAUCAACUCAUUAGAGGGGGGGAAAACCCCUUUGCCCUCAUCUUCAACAGCUCGCAGUCAAG", "experimental target": "GST-SBP-SLBP (stem-loop binding protein) (Homo sapiens, UniProt Q14493 1-270)", "binding signal (log2 fold change)": 0.356}
{"seq string": "GGUCACGUCUCAAUCAACUCUUAAGAGGGGGGGAAAACCCCUUUACCCUCAAAAUCAACAGCUCGCAGUCAAG", "experimental target": "GST-SBP-SLBP (stem-loop binding protein) (Homo sapiens, UniProt Q14493 1-270)", "binding signal (log2 fold change)": 0.666}
{"seq string": "GGUCACGUCUCAAUCAACUCAUUAGAGGGGGGGAAAACCCCUUUGCCCUCACCUUCAACAGCUCGCAGUCAAG", "experimental target": "GST-SBP-SLBP (stem-loop binding protein) (Homo sapiens, UniProt Q14493 1-270)", "binding signal (log2 fold change)": 0.303}

Turning now to a further record.
Inquiry: What reported binding signal corresponds to GGUCACGUCUCAAUCAACUCCAAGGAGGGGGGGAAAACCCCUUUACCCUCAAUCUCAACAGCUCGCAGUCAAG on GST-SBP-SLBP (stem-loop binding protein) (Homo sapiens, UniProt Q14493 1-270)?
Reply text: 0.482
